# Test details: In vivo pharmacokinetic assessments in rodents
# Measurement conditions: male, CD-1, mouse, in vivo, po, 40 mg/kg, elimination half-life in plasma, following oral dosing 40 mg/kg
Endpoint label: half-life

Data point: CC(C)C[C@@H]1NC(=O)c2ccc(-c3ccc(N4CCNCC4)cc3)c(c2)CNC(=O)[C@@H]2CCCN2[C@H](C(=O)NC(C)(C)C)[C@H](C)NC(=O)[C@H]([C@@H](C)O)NC(=O)[C@H](CC(=O)O)NC1=O ; half-life = ~30 min

* * *

# Test details: in vivo
# Measurement conditions: male, CD-1, mouse, po, 40 mg/kg
Endpoint label: half-life (min)
Lab book: enter the figure in min, no units written.

Please fill in: half-life reported for CC(C)C[C@@H]1NC(=O)c2ccc(-c3ccc(N4CCNCC4)cc3)c(c2)CNC(=O)[C@@H]2CCCN2[C@H](C(=O)NC(C)(C)C)[C@H](C)NC(=O)[C@H]([C@@H](C)O)NC(=O)[C@H](CC(=O)O)NC1=O = 32.2

Data credit: patent US20210300932A1
